# MEASURED TARGET: Bile acid receptor (Homo sapiens) (UniProt Q96RI1)
# Sequence (Q96RI1 whole entry, looked up): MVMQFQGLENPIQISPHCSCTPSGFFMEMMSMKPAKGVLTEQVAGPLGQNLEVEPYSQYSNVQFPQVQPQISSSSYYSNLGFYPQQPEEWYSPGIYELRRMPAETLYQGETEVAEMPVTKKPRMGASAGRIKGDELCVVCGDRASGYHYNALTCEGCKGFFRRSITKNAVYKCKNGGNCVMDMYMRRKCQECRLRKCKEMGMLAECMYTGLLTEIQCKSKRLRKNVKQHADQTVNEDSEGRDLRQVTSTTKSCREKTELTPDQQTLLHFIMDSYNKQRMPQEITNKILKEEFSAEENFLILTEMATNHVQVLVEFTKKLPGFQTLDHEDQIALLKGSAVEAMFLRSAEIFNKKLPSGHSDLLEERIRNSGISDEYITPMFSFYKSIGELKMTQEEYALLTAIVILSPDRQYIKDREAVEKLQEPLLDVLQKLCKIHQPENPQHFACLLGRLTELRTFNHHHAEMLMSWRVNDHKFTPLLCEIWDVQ
# TEST METHOD NOTES: qHTS assay for small molecule antagonists of farnesoid X receptor signaling (AID 588526)
# STATED CONDITIONS: HEK293T FXR-UAS-bla, beta-lactamase ratio, antagonist mode; series mostly up to 76.7 µM
Records with an inconclusive call do not appear. Activity calls are given as the source filed them. The call rests on the fitted dose curve.
Outcomes: 1 (active), 0 (inactive)

> print(dat)
                                    compound                           measured.target  class.assignment
 1  CCC(C)(NC(=O)c1cc(Cl)c(C)c(Cl)c1)C(=O)CCl (stereo unspecified)  Bile acid receptor (Homo sapiens) (UniProt Q96RI1)                 0
 2                   O=c1[nH]c2ccccc2c(=O)o1  Bile acid receptor (Homo sapiens) (UniProt Q96RI1)                 0
 3  CC(C)=CC1C(C(=O)OCc2coc(Cc3ccccc3)c2)C1(C)C (stereo unspecified)  Bile acid receptor (Homo sapiens) (UniProt Q96RI1)                 0
 4    Cc1ccn2nc(S(=O)(=O)Nc3c(F)cccc3F)nc2n1  Bile acid receptor (Homo sapiens) (UniProt Q96RI1)                 0
 5                            CCCCOCCOC(C)=O  Bile acid receptor (Homo sapiens) (UniProt Q96RI1)                 0
 6  CC1COC(Cn2cncn2)(c2ccc(Oc3ccc(Cl)cc3)cc2Cl)O1 (stereo unspecified)  Bile acid receptor (Homo sapiens) (UniProt Q96RI1)                 1
 7  COC(=O)c1ccccc1S(=O)(=O)NC(=O)Nc1nc(C)nc(OC)n1  Bile acid receptor (Homo sapiens) (UniProt Q96RI1)                 0
 8  C/C(=N\NC(=O)Nc1cc(F)cc(F)c1)c1ncccc1C(=O)O  Bile acid receptor (Homo sapiens) (UniProt Q96RI1)                 0
 9  OC(c1ccc(Cl)cc1)(c1ccc(Cl)cc1)C(Cl)(Cl)Cl  Bile acid receptor (Homo sapiens) (UniProt Q96RI1)                 0
10               CCOP(=O)(OCC)OP(=O)(OCC)OCC  Bile acid receptor (Homo sapiens) (UniProt Q96RI1)                 0
11  CS(=O)(=O)NC(=O)c1cc(Oc2ccc(C(F)(F)F)cc2Cl)ccc1[N+](=O)[O-]  Bile acid receptor (Homo sapiens) (UniProt Q96RI1)                 0
12                            CCOP(=S)(S)OCC  Bile acid receptor (Homo sapiens) (UniProt Q96RI1)                 0
13            COP(=O)(OC)Oc1nc(Cl)c(Cl)cc1Cl  Bile acid receptor (Homo sapiens) (UniProt Q96RI1)                 0
14  COc1cc(OC)nc(NC(=O)NS(=O)(=O)c2ncccc2C(F)(F)F)n1  Bile acid receptor (Homo sapiens) (UniProt Q96RI1)                 0
15               CNC(=O)/C=C(\C)OP(=O)(OC)OC  Bile acid receptor (Homo sapiens) (UniProt Q96RI1)                 0
16  COc1nn(C(=O)NS(=O)(=O)c2ccccc2OC(F)(F)F)c(=O)n1C  Bile acid receptor (Homo sapiens) (UniProt Q96RI1)                 0
17                         CCOP(=S)(OCC)SCCl  Bile acid receptor (Homo sapiens) (UniProt Q96RI1)                 0
18                CCNc1nc(Cl)nc(NC(C)(C)C)n1  Bile acid receptor (Homo sapiens) (UniProt Q96RI1)                 0
19  CCOP(=O)(NC(C)C)Oc1ccc(S(C)(=O)=O)c(C)c1 (stereo unspecified)  Bile acid receptor (Homo sapiens) (UniProt Q96RI1)                 0
20  CCCSP(=O)(OCC)Oc1ccc(Br)cc1Cl (stereo unspecified)  Bile acid receptor (Homo sapiens) (UniProt Q96RI1)                 0
21  CCOP(=O)(NC(C)C)Oc1ccc(S(C)=O)c(C)c1 (stereo unspecified)  Bile acid receptor (Homo sapiens) (UniProt Q96RI1)                 0
22  Clc1ccc([C@]2(Cn3cncn3)C[C@H](Br)CO2)c(Cl)c1  Bile acid receptor (Homo sapiens) (UniProt Q96RI1)                 0
23  COCc1cnc(C2=NC(C)(C(C)C)C(=O)N2)c(C(=O)O)c1 (stereo unspecified)  Bile acid receptor (Homo sapiens) (UniProt Q96RI1)                 0
24        CC1(C(=O)Nc2ccc(O)c(Cl)c2Cl)CCCCC1  Bile acid receptor (Homo sapiens) (UniProt Q96RI1)                 0
25                              CCOP(OCC)OCC  Bile acid receptor (Homo sapiens) (UniProt Q96RI1)                 0
26                CCNC(=O)NC(=O)/C(C#N)=N/OC  Bile acid receptor (Homo sapiens) (UniProt Q96RI1)                 0
27          COCC(=O)N(c1c(C)cccc1C)N1CCOC1=O  Bile acid receptor (Homo sapiens) (UniProt Q96RI1)                 0
28    CCC(C)c1ccc(O)cc1 (stereo unspecified)  Bile acid receptor (Homo sapiens) (UniProt Q96RI1)                 0
29  NS(=O)(=O)C(F)(F)C(F)(F)C(F)(F)C(F)(F)C(F)(F)C(F)(F)C(F)(F)C(F)(F)F  Bile acid receptor (Homo sapiens) (UniProt Q96RI1)                 0
30           C/C(=N\C(N)=O)N(C)Cc1ccc(Cl)nc1  Bile acid receptor (Homo sapiens) (UniProt Q96RI1)                 0
31                                 [Ga]#[As]  Bile acid receptor (Homo sapiens) (UniProt Q96RI1)                 0
32               Cc1cc(C2CC2)nc(Nc2ccccc2)n1  Bile acid receptor (Homo sapiens) (UniProt Q96RI1)                 0
33  CCOP(=O)(SC(C)CC)SC(C)CC (stereo unspecified)  Bile acid receptor (Homo sapiens) (UniProt Q96RI1)                 0
34  Clc1ccc([C@@]2(Cn3cncn3)C[C@H](Br)CO2)c(Cl)c1  Bile acid receptor (Homo sapiens) (UniProt Q96RI1)                 0
35  Cc1c(F)c(F)c(COC(=O)C2C(/C=C(\Cl)C(F)(F)F)C2(C)C)c(F)c1F (stereo unspecified)  Bile acid receptor (Homo sapiens) (UniProt Q96RI1)                 0
36   C[Si](Cn1cncn1)(c1ccc(F)cc1)c1ccc(F)cc1  Bile acid receptor (Homo sapiens) (UniProt Q96RI1)                 1
37  CC(C)C1(C)N=C(c2ncccc2C(=O)O)NC1=O (stereo unspecified)  Bile acid receptor (Homo sapiens) (UniProt Q96RI1)                 0
38                      FC(F)(F)c1ccc(Cl)cc1  Bile acid receptor (Homo sapiens) (UniProt Q96RI1)                 0
39  CC1(C)CN=C(NN=C(/C=C/c2ccc(C(F)(F)F)cc2)/C=C/c2ccc(C(F)(F)F)cc2)NC1  Bile acid receptor (Homo sapiens) (UniProt Q96RI1)                 1
40                           Nc1nc(N)nc(N)n1  Bile acid receptor (Homo sapiens) (UniProt Q96RI1)                 0
41  CCC[CH2][Sn]([CH2]CCC)([O]C(C)=O)[O]C(C)=O  Bile acid receptor (Homo sapiens) (UniProt Q96RI1)                 1
42         O=[N+]([O-])Nc1nccn1Cc1ccc(Cl)nc1  Bile acid receptor (Homo sapiens) (UniProt Q96RI1)                 0
43  Cc1c(COC(=O)C2C(/C=C(\Cl)C(F)(F)F)C2(C)C)cccc1-c1ccccc1 (stereo unspecified)  Bile acid receptor (Homo sapiens) (UniProt Q96RI1)                 0
44    COCC(=O)N(c1c(C)cccc1C)[C@H](C)C(=O)OC  Bile acid receptor (Homo sapiens) (UniProt Q96RI1)                 0
45  O=C(NC(=O)c1c(F)cccc1F)Nc1cc(Cl)c(OC(F)(F)C(F)C(F)(F)F)c(Cl)c1F (stereo unspecified)  Bile acid receptor (Homo sapiens) (UniProt Q96RI1)                 0
46  O=[N+]([O-])c1ccc(Oc2ccc(C(F)(F)F)cc2[N+](=O)[O-])cc1  Bile acid receptor (Homo sapiens) (UniProt Q96RI1)                 0
47                   CCNc1nc(NC(C)C)nc(OC)n1  Bile acid receptor (Homo sapiens) (UniProt Q96RI1)                 0
48  CCNS(=O)(=O)C(F)(F)C(F)(F)C(F)(F)C(F)(F)C(F)(F)C(F)(F)C(F)(F)C(F)(F)F  Bile acid receptor (Homo sapiens) (UniProt Q96RI1)                 0
49                CCN(CC)C(=O)SCc1ccc(Cl)cc1  Bile acid receptor (Homo sapiens) (UniProt Q96RI1)                 0
50     CCCCC(CC)C(=O)Cl (stereo unspecified)  Bile acid receptor (Homo sapiens) (UniProt Q96RI1)                 0
51  C=CC1(C)OC(=O)N(c2cc(Cl)cc(Cl)c2)C1=O (stereo unspecified)  Bile acid receptor (Homo sapiens) (UniProt Q96RI1)                 0
